Attribution: PubChem BioAssay

Consider the following compounds; for each one, report its composite z-score.
test: COS7 lysate on small-molecule microarray, probe aHis, 635 nm (AID 1123); settings: COS7 cell lysate, fluorescence, higher = more signal;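 further: z-score combines 667nm fluorescence intensity with signal-to-noise per printed compound spot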
Please reply with the value in numeric form only.

Ask: Recorded composite z-score for O=C1C2C=CC(C(O)c3cccc(O)c3)N(Nc3ccccc3F)C2C(=O)N1c1ccccc1 (stereo not drawn) , please?
Reply: -0.0811

Ask: Recorded composite z-score for COC(=O)Cn1c(C(=O)N(C)C)cc2c1C[C@H]1CN(C(=O)c3ccccc3)[C@@](Cc3ccc(OC)cc3)(C(=O)OC)[C@@H]21 , please?
Reply: 3.28

Ask: Recorded composite z-score for O=C1O[C@@H](c2ccccc2)[C@@H](c2ccccc2)N2[C@@H](c3ccc(O)cc3)[C@]3(C(=O)Nc4ccc(C#CC5=CCCCC5)cc43)[C@@H](C(=O)N3CCCCCCC3)[C@H]12 , please?
Reply: 2.97

* * *

target: Neurogenic locus notch homolog protein 2 (Homo sapiens); experiment: Notch2 binders on small-molecule microarrays, primary screen, biochemical, small-molecule microarray, 635 nm fluorescence, stem cell growth factors (AID 1073); conditions: Notch2 binding, higher = more signal
readout: composite z-score
Please reply with the value in numeric form only.

Ask: Recorded composite z-score for COC(=O)[C@@]1(Cc2ccc(OC)cc2)[C@H]2c3cc(C(=O)N4CCCC4)n(CCc4ccc(OC)c(Br)c4)c3C[C@H]2CN1C(=O)c1ccccc1 , please?
Reply: 1.04

Ask: Recorded composite z-score for CCCCN1CC=CC23O[C@@H]4/C=C\CCC(C)OC(=O)C4[C@H]2C(=O)N(C(C)CO)[C@@H]3C1=O (stereo partly specified) , please?
Reply: -0.831

Ask: Recorded composite z-score for NCCCC[C@@H]1NC(=O)[C@H]2C[C@@H](C(=O)NCc3ccc(F)cc3)[C@@H](c3cccc(OCCO)c3)N2C1=O , please?
Reply: 0.772

Ask: Recorded composite z-score for C#CCN=C(N)N , please?
Reply: 0.389

Ask: Recorded composite z-score for COC(=O)[C@]1(CO)N=C(c2ccc(OCCCO)cc2)O[C@@H]1c1ccccc1CN=[N+]=[N-] , please?
Reply: -0.663

Ask: Recorded composite z-score for COCCOC(=O)N1C(=O)[C@@]2(c3cc(C#CC4=CCCCC4)ccc31)[C@H](C(=O)N1CCN(c3ncccn3)CC1)[C@H]1C(=O)O[C@H](c3ccccc3)[C@H](c3ccccc3)N1[C@@H]2c1ccccc1OCCO , please?
Reply: 0.793

Ask: Recorded composite z-score for NC(=O)N1C(=O)C2C(C1=O)C1C=C(CCCO)C2C(c2ccc(CN3CCCC3)cc2)N1Cc1cccc(OC(F)(F)F)c1 (stereo unspecified) , please?
Reply: 0.185

Ask: Recorded composite z-score for C=CCC(OC(C)=O)[C@@H]1[C@@H](N(Cc2ccc(-c3ccccc3)cc2)C(=O)c2cccc3ccccc23)c2cc(OCCCO)ccc2N1C(=O)c1ccc2ccccc2c1 (stereo partly specified) , please?
Reply: 0.045

Ask: Recorded composite z-score for O=C1N(CCS(=O)(=O)c2ccccc2)c2ccccc2[C@@H]2OC(c3ccc(OCCCO)cc3)=N[C@]12CCS(=O)(=O)c1ccccc1 , please?
Reply: 1.44

Ask: Recorded composite z-score for CO[C@H]1O[C@H](CO)[C@@H](OC(=O)Nc2ccc(C(F)(F)F)cc2)[C@H](OC(=O)Nc2ccccc2-c2ccccc2)[C@H]1OC(=O)Nc1ccccc1-c1ccccc1 , please?
Reply: 1.04

Ask: Recorded composite z-score for COC(=O)[C@@]1(Cc2ccccc2)[C@@H]2[C@@H](CC(=O)[C@H]2CC(=O)C(=O)N(C)C)CN1C(=O)c1ccccc1 , please?
Reply: 1.19

Ask: Recorded composite z-score for COc1ccc([Si](C)(C)[C@H]2[C@H](CC(=O)N3Cc4ccccc4C[C@H]3CO)O[C@@]3(C(=O)N(Cc4cccc(N5C(=O)c6cccc7cccc5c67)c4)c4ccccc43)[C@@H]2C)cc1 , please?
Reply: 0.0297

Ask: Recorded composite z-score for CC(C)C[C@H]1NC(=O)[C@@H](C)NC(=O)[C@@]23C(=O)N[C@@H](Cc4ccccc4)C2[C@H](C)[C@@]2(C)O[C@H]2C3/C=C/C/C=C\CNC1=O (stereo partly specified) , please?
Reply: 0.125

Ask: Recorded composite z-score for CCOC(=O)C1=CC[C@@H](c2ccc(F)cc2)N(S(=O)(=O)c2ccc(C)cc2)[C@H]1c1ccc([N+](=O)[O-])cc1 , please?
Reply: 1.26

Ask: Recorded composite z-score for CCCC[C@H]1OB(O)C[C@H]2C1=C(C)C[C@H]1C(=O)C=CC(=O)[C@H]12 , please?
Reply: 0.425

Ask: Recorded composite z-score for CN1C(=O)[C@]2(CCC(=O)OC(C)(C)C)N=C(c3ccc(OCCCO)cc3)O[C@@H]2c2ccccc21 , please?
Reply: 0.428

Ask: Recorded composite z-score for COc1ccc(C(O)C2C=CC3C(=O)N(C)C(=O)C3N2Nc2ccc([N+](=O)[O-])cc2[N+](=O)[O-])cc1OCc1ccccc1 (stereo unspecified) , please?
Reply: 1.6

Ask: Recorded composite z-score for COc1ccc([Si](C)(C)[C@H]2[C@H](CCO)O[C@@]3(C(=O)N(Cc4ccc(N5CCOC5=O)cc4)c4ccccc43)[C@@H]2C)cc1 , please?
Reply: -0.0425

Ask: Recorded composite z-score for Cc1ccc(S[C@]2(C(=O)NCCCN(C)C)CC(=O)N(Cc3ccccc3Cl)[C@@H]2c2ccc(CO)cc2I)cc1 , please?
Reply: -1.17

Ask: Recorded composite z-score for C/C=C/CN(C(=O)C#Cc1ccccc1)[C@H](CO[Si](C)(C)C(C)(C)C)c1ccccc1 , please?
Reply: -1.58

Ask: Recorded composite z-score for O=C1C2C=CC(C(O)c3cccs3)N(Nc3ccccc3)C2C(=O)N1c1ccccc1 (stereo unspecified) , please?
Reply: 0.878
